assay: self-splicing fitness, log relative to wild type (ln ratio); higher = more splicing; Tetrahymena group I intron in knt gene, E. coli kanamycin selection, DiMSum; sequences stand for … in CUCUCU…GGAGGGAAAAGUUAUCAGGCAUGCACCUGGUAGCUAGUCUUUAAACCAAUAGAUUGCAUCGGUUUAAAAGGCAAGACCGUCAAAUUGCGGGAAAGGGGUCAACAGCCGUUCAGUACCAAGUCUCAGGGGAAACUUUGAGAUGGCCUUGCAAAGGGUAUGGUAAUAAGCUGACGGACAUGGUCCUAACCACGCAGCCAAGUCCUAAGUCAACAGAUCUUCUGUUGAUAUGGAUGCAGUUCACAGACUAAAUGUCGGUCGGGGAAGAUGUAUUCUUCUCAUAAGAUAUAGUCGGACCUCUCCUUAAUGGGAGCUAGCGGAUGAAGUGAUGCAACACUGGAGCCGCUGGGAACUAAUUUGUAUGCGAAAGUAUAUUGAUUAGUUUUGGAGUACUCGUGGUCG; conditions: 37 °C;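 further: selection with 25 µg/mL kanamycin versus none on LB agar overnight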
PROPERTY MEASURED: self-splicing fitness (ln)

SEQ TEXT	READOUT NUMBER
ACUAAGCAAUAUUACGUGCG	-0.294
CAAAAGCAAUAUUACGGCUU	-2.39
GGAAAGCAAUAUUACGGCAG	-3.11
GGCAAGCAAUAUUACGGUUA	0.577
GAAAAGCAAUAUUACGUGAU	-1.9
UGGGAGCAAUAUUACGGUGU	-1.9

---

self-splicing fitness (ln) for assorted sequences
experiment: self-splicing fitness, log relative to wild type (ln ratio); higher = more splicing; Tetrahymena group I intron in knt gene, E. coli kanamycin selection, DiMSum; sequences stand for … in CUCUCU…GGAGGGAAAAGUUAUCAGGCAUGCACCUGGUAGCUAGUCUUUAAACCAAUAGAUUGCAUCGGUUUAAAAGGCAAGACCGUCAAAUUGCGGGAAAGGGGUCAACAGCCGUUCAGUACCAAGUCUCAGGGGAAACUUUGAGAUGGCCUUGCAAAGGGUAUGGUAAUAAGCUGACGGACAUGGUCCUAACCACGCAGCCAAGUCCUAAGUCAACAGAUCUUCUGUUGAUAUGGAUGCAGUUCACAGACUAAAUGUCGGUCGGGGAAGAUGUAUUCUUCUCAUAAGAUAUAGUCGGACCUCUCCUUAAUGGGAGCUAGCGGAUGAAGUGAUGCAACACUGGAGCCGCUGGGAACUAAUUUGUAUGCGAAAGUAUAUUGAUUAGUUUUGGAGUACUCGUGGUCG; settings: 37 °C
PROPERTY MEASURED: self-splicing fitness (ln)

SEQ TEXT	PROPERTY MEASURED	READOUT NUMBER
GUGCAGCAAUAUUACGUGAA	self-splicing fitness (ln)	-1.19
GAUAAGCAAUAUUACGCCGA	self-splicing fitness (ln)	-1.14
UUGGAGCAAUAUUACGCAGC	self-splicing fitness (ln)	-1.51
CAGGAGCAAUAUUACGCCAU	self-splicing fitness (ln)	-1.55
AUACAGCAAUAUUACGAGAA	self-splicing fitness (ln)	-1.79
CUUCAGCAAUAUUACGGAUC	self-splicing fitness (ln)	-0.259
UGCCAGCAAUAUUACGGGGG	self-splicing fitness (ln)	-2.9
GUCAAGCAAUAUUACGACAA	self-splicing fitness (ln)	-2.58
GCGGAGCAAUAUUACGAGCG	self-splicing fitness (ln)	0.152
GUCUAGCAAUAUUACGCUCU	self-splicing fitness (ln)	1.05

All values here come from the supplement of paper PMC7877785.
